Cited source for all entries: PubChem BioAssay (NCI)

- System: NCI-H522 lung
- Assay Remarks: NCI-60 one-dose screen, 48 h (100 = growth as untreated, 0 = no growth, -100 = all killed)
- Test Context: 10 µM unless noted
The panel holds about 83,000 compounds, 20% with a hit somewhere; the sample as a whole holds those more often.
The following compounds are shown together with reported growth values.
Reported Metric: growth (%)

Compound	Reported Metric	Result
COc1cc2ncnc(Nc3cccc(Cl)c3F)c2cc1OC(=O)N1CCN(C)C[C@H]1C	growth	16.2
COc1cc2c(cc1OCCCN1Cc3ccc(OCCCCC(=O)N4CCC(CCN5CCCC5)CC4)cc3C1)N=C(N)C21CCCC1	growth	50.7
COCCN1CCN(Cc2ccc(-c3n[nH]c4c3C(=O)c3c(NC(=O)NN5CCOCC5)cccc3-4)cc2)CC1	growth	-34.1
Nc1nc(=S)c2ncn(C3OC(COC(=O)c4ccc(Cl)cc4)C(OC(=O)c4ccc(Cl)cc4)C3OC(=O)c3ccc(Cl)cc3)c2[nH]1 (centres undefined)	growth	86.8
Cc1cc(C(=O)NOCCO)c(Nc2ccc(I)cc2F)n(C)c1=O	growth	55
Oc1ccc(C(c2ccc(O)cc2)C(Cl)(Cl)Cl)cc1	growth	83.2
N#Cc1c(-c2ccc(Cl)cc2)csc1NC(=O)Nc1cccc(C(F)(F)F)c1	growth	-9.41
Cn1cnc2c(F)c(Nc3ccc(Br)cc3F)c(C(=O)NOCCO)cc21	growth	60.9
CN1CCN(c2ccc(OC(F)(F)F)c(Nc3ncc4c(n3)-c3c(c(C(N)=O)nn3CCO)CC4)c2)CC1	growth	-22
Cc1csc(-c2nnc(Nc3ccc(Oc4ncccc4-c4ccnc(N)n4)cc3)c3ccccc23)c1	growth	30.8
CCCCCC(=O)OCc1ccc(Cl)c(Cl)c1	growth	97.5
Nc1ccc(S(=O)(=O)O)c2cc(S(=O)(=O)O)cc(O)c12	growth	103
Cn1ccnc1C(=O)/C=C/c1ccc(CC(=O)Nc2ccc(S(F)(F)(F)(F)F)cc2)cc1	growth	-51.1
c1cc[n+](Cc2c3ccccc3cc3c2ccc2ccccc23)cc1	growth	18.4
C=CCN(/C=C1/C(=O)O[C@H](COC)[C@@]2(C)C1=C(O)C(=O)C1=C2[C@H](OC(C)=O)C[C@]2(C)C(=O)CC[C@@H]12)CC=C	growth	13.5
CNC(=O)CN1CCC(Oc2cc3c(Nc4cccc(Cl)c4F)ncnc3cc2OC)CC1	growth	5.87
CCc1cnn2c(NCc3ccc[n+]([O-])c3)cc(N3CCCC[C@H]3CCO)nc12	growth	-42.2
CN1CCN(c2ccc(C(=O)Nc3n[nH]c4ccc(Cc5cc(F)cc(F)c5)cc34)c(NC3CCOCC3)c2)CC1	growth	-70.6
Clc1ccc2c(NCCNc3nc(N4CCCC4)nc4ccccc34)ccnc2c1	growth	-48

---

- Tested on: SN12C renal
- Assay Remarks: NCI-60 one-dose screen, 48 h (100 = growth as untreated, 0 = no growth, -100 = all killed)
- Test Context: 10 µM unless noted
The panel holds about 83,000 compounds, 20% with a hit somewhere; the sample as a whole holds those more often.
Labelling field: enter true (1) if recorded growth is less than 70%. Enter false (0) if it equals or exceeds that cut-off.

Molecule	Cat
CCOC(=O)C1=C(C)N=C2Sc3cccc(OC)c3N2[C@H]1c1ccccn1	false (0)
COc1cc2ncnc(Nc3cccc(Cl)c3F)c2cc1OC(=O)N1CCN(C)C[C@H]1C	true (1)
Cc1cc(N(CCNc2ccnc3cc(Cl)ccc23)Cc2cccs2)nc(Cl)n1	true (1)
COc1cc2cc(NCc3ccc(Cl)cc3)nc(C)c2cc1OC	true (1)
CC(=O)CC1CCCC1c1ccc2ccccc2c1 (stereo not given)	false (0)
COc1cc(NC2CCC(=O)N2c2ccc(Cl)cc2Cl)cc(OC)c1OC (stereo not given)	false (0)
COC(=O)c1ccc2c(C(=Nc3ccc(N(C)C(=O)CN4CCN(C)CC4)cc3)c3ccccc3)c(O)[nH]c2c1	true (1)
C#Cc1cccc(Nc2ncnc3cc4c(cc23)OCCOCCOCCO4)c1	true (1)
COc1cc2nc(Nc3cccc(Cl)c3)nc(N)c2cc1OC	false (0)
N#CC[C@H](C1CCCC1)n1cc(-c2ncnc3[nH]ccc23)cn1	true (1)
CCN1CCN(CCCN(C[C@H]2Cc3ccccc3CN2)[C@H]2CCCc3cccnc32)CC1	false (0)
CC(C)[C@@H](C)/C=C/[C@@H](C)[C@H]1CCC2=C3C=CC4=CC(=O)CC[C@]4(C)[C@H]3CC[C@@]21C	false (0)
CCN1/C(=C/C=C/c2n(-c3ccccc3)c3ccc(-c4nc5ccccc5s4)cc3[n+]2CC)N(c2ccccc2)c2ccc(-c3nc4ccccc4s3)cc21	true (1)
CN1CC[C@@H](c2c(O)cc(O)c3c(=O)cc(-c4ccccc4Cl)oc23)[C@@H]1CO	true (1)
COC(=O)N[C@@H](C)CNc1nccc(-c2cn(C(C)C)nc2-c2cc(Cl)cc(NS(C)(=O)=O)c2F)n1	true (1)
COc1ccc2c(CCC(c3ccccc3)c3ccccc3)c3[n+](cc2c1OC)CCc1cc2c(cc1-3)OCO2	true (1)
CC1(/C=N/NC(N)=S)NC(=O)NC1=O (stereo not given)	false (0)
Cc1nc2cc(-c3nn(C(C)C)c4ncnc(N)c34)ccc2o1	true (1)
Cc1ccc(-[n+]2c3cc(N)c(C)cc3nc3cc(C)c(Nc4ccccc4)cc32)cc1	true (1)
CCN(CC)c1cc2oc3cc(N)cc(=N)c-3nc2cc1C	true (1)
